# Test system: U-251
# Run description: NCI tumour cell line growth inhibition, 48 h
Calls of active or inactive are those of the source. Rule as the data show it: active = GI50 up to about 1.1 µM and inactive = higher.
Entries and their GI50

Fill in the blank: the reported GI50 of "Cc1cc2c(cc1C)[n+]([O-])c(C(=O)CC(=O)C(=O)Nc1ccccc1C)c(C)[n+]2[O-]" is ____.
> 100 µM (inactive)

Which GI50 reading was recorded for the molecule "CC(=O)N/C(=C\c1ccccc1/C=C(\NC(C)=O)c1nc2cc(C)c(C)cc2[nH]1)c1nc2cc(C)c(C)cc2[nH]1" ?
6.59 µM (inactive)

Which GI50 value is on record for C[C@H](NC(=O)OC1C2C=CC(O)C1CC2)c1ccccc1 (stereo not given in full) ?
> 100 µM (inactive)

I have this molecule here, "O=[N+]([O-])/C(C(Cl)=C(Cl)Cl)=C(/Cl)Sc1ccccc1" , and I need its recorded GI50.
2.25 µM (inactive)

Request the reported GI50 associated with "CC(C)(C)OC(=O)NCCc1cccc2c1oc1c(CCC(=O)O)cccc12"
> 100 µM (inactive)
